// values below are reported koff
# assayed_system: recombinant mouse artemin protein (Ala112-Gly224 fragment) (Mus musculus, UniProt Q9Z0L2)
# Sequence (Q9Z0L2 112-224): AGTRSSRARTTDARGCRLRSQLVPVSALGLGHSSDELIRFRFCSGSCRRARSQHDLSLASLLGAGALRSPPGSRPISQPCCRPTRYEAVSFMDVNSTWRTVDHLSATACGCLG
# experiment_summary: SPR
Please state the figure in s⁻¹; there is no need to write the unit.

LM41 llama-VHH nanobody (mutated) (VHH) VHH: QVQLVESGGGLVQAGGSLRLSCAASGRTLSRYAVGWFRQAPGKEREFVAVVHWNGVSTYHAEPVKGRFTISRDNAKNTVYLQMNSLKPDDTAVYYCAAATTSYVDIYTTDYDYWGQGTQVTVSS :: 0.0052

Q: Need koff, item LM52 llama-VHH nanobody (mutated) (VHH) VHH: QVQLVESGGGLVQAGASLRLSCAASGGTLVNSSMGWFRQAPGKERDFVATINWRGDTTWYGESVKGRFSISRDNTKNMVYLQMNSLKPEDTAVYYCAVYRTRYYTGRRMMSPDEYDVWGQGTQVTVSS
Result: 0.004

Q: What value of koff has been reported for the following binder? LU5 llama-VHH nanobody (naive) (VHH) VHH: QVQLVESGGGLVQAGASLRLSCAASGGTLVNSSMGWFRQAPGKERDFVATINWRGDTTWYGESVKGRFSISRDNAKNTVYLQMNSLNPEDTAVYYCAVYRTRYYTGRRMMSPDEYDVWGQGTQVTVSS
Result: 0.0088

Q: Would you mind telling me what koff value was observed for LU68 llama-VHH nanobody (naive) (VHH) VHH: QVQLVESGGGLVQAGGSLRLSCAASGRTLSRYAVGWFRQAPGKEREFVAVVHWNGVSTYYAEPVKGRFTISRDNAKNTVYLQMNSLKPDDTAVYYCAAATTSYVDIYTTDYDYWGQGTQVTVSS ?
Result: 0.023
